- target_system: N337A mutant of P. aeruginosa dihydropyrimidinase (Pseudomonas aeruginosa, UniProt Q9I676, N337A)
- Sequence (Q9I676 whole entry N337A): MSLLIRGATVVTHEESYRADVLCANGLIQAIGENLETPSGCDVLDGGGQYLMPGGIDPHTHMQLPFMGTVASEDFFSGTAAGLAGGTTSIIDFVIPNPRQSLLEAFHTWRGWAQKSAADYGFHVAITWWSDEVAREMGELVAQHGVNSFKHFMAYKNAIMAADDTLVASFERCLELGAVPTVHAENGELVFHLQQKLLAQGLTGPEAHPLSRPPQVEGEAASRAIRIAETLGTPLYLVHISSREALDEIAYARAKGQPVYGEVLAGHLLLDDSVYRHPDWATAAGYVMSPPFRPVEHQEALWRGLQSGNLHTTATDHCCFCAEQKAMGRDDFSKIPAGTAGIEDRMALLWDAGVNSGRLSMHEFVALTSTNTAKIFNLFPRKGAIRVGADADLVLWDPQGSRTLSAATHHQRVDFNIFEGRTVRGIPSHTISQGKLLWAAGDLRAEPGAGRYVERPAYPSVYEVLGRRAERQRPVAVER
- experiment_description: Fluorescence quenching of the N337A mutant
measure: Kd (µM)
Field: numeric (µM). Do not append units.

IN: What does the record list as Kd for O=C1c2c(O)cc(O)cc2O[C@H](c2cc(O)c(O)c(O)c2)[C@H]1O [dihydromyricetin] ?
OUT: 24.1

----------
- target_system: dihydropyrimidinase from P. aeruginosa PAO1 (Pseudomonas aeruginosa)
- Sequence (Q9I676 whole entry): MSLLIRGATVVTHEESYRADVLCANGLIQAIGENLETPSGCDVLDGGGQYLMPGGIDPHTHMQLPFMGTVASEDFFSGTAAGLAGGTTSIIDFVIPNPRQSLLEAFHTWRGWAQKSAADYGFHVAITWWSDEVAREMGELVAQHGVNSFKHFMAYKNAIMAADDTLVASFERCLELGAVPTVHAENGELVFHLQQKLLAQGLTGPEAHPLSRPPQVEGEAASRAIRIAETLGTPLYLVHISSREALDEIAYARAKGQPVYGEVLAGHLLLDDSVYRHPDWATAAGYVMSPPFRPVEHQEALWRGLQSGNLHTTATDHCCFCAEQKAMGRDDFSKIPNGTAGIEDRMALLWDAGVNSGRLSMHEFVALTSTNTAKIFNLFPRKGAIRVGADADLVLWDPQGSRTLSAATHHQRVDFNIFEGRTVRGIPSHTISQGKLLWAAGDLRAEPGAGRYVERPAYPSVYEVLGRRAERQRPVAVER
- experiment_description: Spectrophotometric enzyme assay: inhibition of dihydropyrimidinase
- Format: biochemical
- measurement_setup: 5-propyl-hydantoin or dihydrouracil as substrate
measure: Inhibitory effect on dihydropyrimidinase activity

IN: What does the record list as Inhibitory effect on dihydropyrimidinase activity for O=C(O)CC1NC(=O)NC1=O (stereo not shown) ?
OUT: only slightly inhibit

IN: Next entry: CC(=O)NO [acetohydroxamate]
OUT: only slightly inhibit

IN: Next entry: O=C(O)c1cc(=O)[nH]c(=O)[nH]1
OUT: slightly inhibit

IN: Next entry: Nc1nc[nH]n1
OUT: slightly inhibit

All values here come from paper PMC4437985.
